assayProcedure: Cytotoxicity against human Hep2 cells assessed as cell survival fraction at 0.005 ug/ml after 24 hrs by trypan blue exclusion assay (reference value: 97 to 98%)
Format: cell-based
cond: HEp-2 cells, read-out: Survival
Item-by-item account of viability at 24 h, 0.005 ug/ml
Hi! Could you send only the number? It should be in %, unit omitted.

// known answers, use as guide
[
  {
    "querySmiles": "CCC/C(C)=N/Nc1nc(-c2ccc(C)cc2)cs1",
    "unitsLabel": "%",
    "viability at 24 h, 0.005 ug/ml": 97
  },
  {
    "querySmiles": "Clc1ccccc1C(c1ccccc1)(c1ccccc1)n1ccnc1",
    "unitsLabel": "%",
    "viability at 24 h, 0.005 ug/ml": 94.4
  },
  {
    "querySmiles": "CCC/C(C)=N/Nc1nc(-c2ccc(OC)cc2)cs1",
    "unitsLabel": "%",
    "viability at 24 h, 0.005 ug/ml": 92
  },
  {
    "querySmiles": "C/C(=N\\Nc1nc(-c2ccc(Cl)cc2Cl)cs1)C1CCCCC1",
    "unitsLabel": "%",
    "viability at 24 h, 0.005 ug/ml": 97.2
  },
  {
    "querySmiles": "CCCC/C(CC)=N/Nc1nc(-c2ccc(OC)cc2)cs1",
    "unitsLabel": "%",
    "viability at 24 h, 0.005 ug/ml": 93
  }
]

API: the following record is the query input.
Give its viability at 24 h, 0.005 ug/ml value. Item: CC/C(C)=N/Nc1nc(-c2ccc(OC)cc2)cs1
78
